experiment: plasma pharmacokinetics after oral administration; format: in vivo, Male CD-1 mice; settings: male, CD-1, mouse, (Mean AUC0-∞ oral/oral dose)/(Mean AUC0-∞ IV/IV dose)×100%, 25 mg/kg oral, 5 mg/kg IV, read-out: Estimated bioavailability
measure: bioavailability (%)
Please reply with the bare figure in % and do not write the unit itself.

[ask] # get_value(readout='bioavailability', item= CN1CCN(CCOc2ccc(-c3ccc(CC(=O)NCc4cccc(F)c4)cc3)c(F)c2)CC1 )
[reply] 34.4

###

experiment: plasma pharmacokinetics after IV administration; type: in vivo, Male CD-1 mice; settings: male, CD-1, mouse; plasma, single IV dose 5 mg/kg; estimated from 3, 6, 12 hours
measure: half-life (h)
Please reply with the bare figure in h and do not write the unit itself.

[ask] # get_value(readout='half-life', item= CN1CCN(CCOc2ccc(-c3ccc(CC(=O)NCc4cccc(F)c4)cc3)c(F)c2)CC1 )
[reply] 1.6

###

Experiment: plasma pharmacokinetics after IV administration
Type: in vivo, Male CD-1 mice
Conditions: male, CD-1, mouse, plasma, iv, 5 mg/kg, single IV dose 5 mg/kg, 12 hr; BLQ = 0; read-out: Plasma Concentrations, Mean
Protocol: [drawing 435] are described below. Plasma concentrations were measured in mice after oral and IV administration. Both oral and IV doses were formulated in saline. Male CD-1 mice were dosed after an overnight fast and fed 4 hours post-dose. A single IV dose of 139 was administered to male CD-1 mice intravenously at 5 mg/kg (dose volume of 3 mL/kg). The plasma concentration of 139 was measured at 0 min, 5 min, 15 min, 30 min, 1 h, 3 h, 6 h, and 12 h time points. […]
measure: concentration at 12 h (ng/mL)
Please reply with the bare figure in ng/mL and do not write the unit itself.

[ask] # get_value(readout='concentration at 12 h', item= CN1CCN(CCOc2ccc(-c3ccc(CC(=O)NCc4cccc(F)c4)cc3)c(F)c2)CC1 [Compound 139] )
[reply] 3.67

###

test: plasma pharmacokinetics after oral administration; assay type: in vivo, Male CD-1 mice; settings: male, CD-1, mouse, single oral dose 25 mg/kg
measure: MRT (h)
Please reply with the bare figure in h and do not write the unit itself.

[ask] # get_value(readout='MRT', item= CN1CCN(CCOc2ccc(-c3ccc(CC(=O)NCc4cccc(F)c4)cc3)c(F)c2)CC1 [Compound 139] )
[reply] 7.7

###

experiment: brain exposure after oral administration; assay type: in vivo, male CD-1 mice; settings: male, CD-1, mouse, brain, po, 10 mg/kg, single PO dose 10 mg/kg (Group 1), 1 hr; read-out: Brain Concentrations, Mean
measure: concentration at 1 h (ng/g)
Please reply with the bare figure in ng/g and do not write the unit itself.

[ask] # get_value(readout='concentration at 1 h', item= O=C(Cc1ccc(-c2ccc(OCCN3CCOCC3)cc2)cn1)NCc1ccccc1 )
[reply] 170

###

test system: HT29 cell line; experiment: BrdU cell growth inhibition, HT29; format: cell-based, human; settings: HT29 (Colon) cells
measure: GI50

[ask] I'm curious: which GI50 was measured for CCOc1ccc(-c2ccc(CC(=O)NCc3cccc(F)c3)nc2)c(OCCN2CCCCC2)c1 tested on HT29 cell line?
[reply] inactive

[ask] I'm curious: which GI50 was measured for CCOc1ccc(-c2ccc(CC(=O)NCc3cccc(F)c3)nc2)c(OCCN2CCN(C)CC2)c1 tested on HT29 cell line?
[reply] inactive

[ask] I'm curious: which GI50 was measured for CC(C)COc1cc(F)cc(CNC(=O)Cc2ccc(-c3ccc(OCCN4CCCCC4)cc3)cn2)c1 tested on HT29 cell line?
[reply] inactive

###

test: brain exposure after oral administration; assay type: in vivo, male CD-1 mice; details: male, CD-1, mouse, brain, po, 50 mg/kg, Male CD-1 mice, single PO dose 50 mg/kg (Group 4), 0.5 hr, Group B; read-out: KX2-391 Brain Concentrations, Group B
measure: concentration at 0.5 hr
Just so you know, I need the unit written after the number.

[ask] # get_value(readout='concentration at 0.5 hr', item= O=C(Cc1ccc(-c2ccc(OCCN3CCOCC3)cc2)cn1)NCc1ccccc1 )
[reply] 2120 ng/g

###

Test: plasma exposure after oral administration
Assay type: in vivo, male CD-1 mice
Conditions: male, CD-1, mouse, plasma, po, 10 mg/kg, single PO dose 10 mg/kg (Group 1), 2 hr; read-out: Plasma Concentrations, Mean
Protocol: Plasma concentrations were measured in mice after oral administration. All doses were formulated in purified water. Four groups of male CD-1 mice were dosed after an overnight fast and fed 4 hours post-dose. Dosing was as follows: Protein was precipitated with 0.25 mL acetonitrile for plasma, 0.25 mL for brain. After centrifugation, supernatant was directly injected into an LC/MS system. The limit of quantitation was 1 ng/mL using a 50 μL aliquot for plasma and a 50 μL, aliquot for brain. […]
measure: concentration at 2 h (ng/mL)
Please reply with the bare figure in ng/mL and do not write the unit itself.

[ask] # get_value(readout='concentration at 2 h', item= O=C(Cc1ccc(-c2ccc(OCCN3CCOCC3)cc2)cn1)NCc1ccccc1 )
[reply] 287

###

assay: brain exposure after oral administration; type: in vivo, male CD-1 mice; settings: male, CD-1, mouse, brain, po, 50 mg/kg, single PO dose 50 mg/kg (Group 2), 0.5 hr; read-out: Brain Concentrations, Mean
measure: concentration at 0.5 h (ng/g)
Please reply with the bare figure in ng/g and do not write the unit itself.

[ask] # get_value(readout='concentration at 0.5 h', item= O=C(Cc1ccc(-c2ccc(OCCN3CCOCC3)cc2)cn1)NCc1ccccc1 )
[reply] 3690

###

test system: H226; test: MTT growth inhibition, Dasatinib-resistant H226; format: cell-based, human; conditions: Homo sapiens, NCI-H226, H226, 8.0×10^3 cells/well, 1.5% FBS, 78 Hr
measure: IC50 (nM)
Please reply with the bare figure in nM and do not write the unit itself.

[ask] # get_value(readout='IC50', item= Cc1nc(Nc2ncc(C(=O)Nc3c(C)cccc3Cl)s2)cc(N2CCN(CCO)CC2)n1 [Dasatinib, reference compound] )
[reply] 163

###

# pIC50 listing for each entry below
target: isolated Src (Homo sapiens); assay: titration against isolated Src; conditions: titration data
Sequence (P12931 whole entry): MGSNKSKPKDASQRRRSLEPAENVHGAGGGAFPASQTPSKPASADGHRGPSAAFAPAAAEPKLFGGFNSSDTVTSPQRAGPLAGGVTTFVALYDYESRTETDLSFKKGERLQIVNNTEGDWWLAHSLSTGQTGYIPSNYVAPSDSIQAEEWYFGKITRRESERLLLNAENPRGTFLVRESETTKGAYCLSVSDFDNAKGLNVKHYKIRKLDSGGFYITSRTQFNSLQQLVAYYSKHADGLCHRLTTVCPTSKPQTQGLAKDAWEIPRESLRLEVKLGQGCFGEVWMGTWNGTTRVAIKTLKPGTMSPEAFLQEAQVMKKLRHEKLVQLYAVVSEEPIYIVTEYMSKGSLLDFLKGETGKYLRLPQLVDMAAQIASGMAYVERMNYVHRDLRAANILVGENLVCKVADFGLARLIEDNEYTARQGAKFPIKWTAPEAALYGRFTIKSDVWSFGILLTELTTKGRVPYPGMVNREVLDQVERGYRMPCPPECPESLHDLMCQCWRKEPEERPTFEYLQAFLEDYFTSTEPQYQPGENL
Notebook: values listed as pIC50 are -log10 of the concentration (mol/L).

Some compounds with recorded pIC50:
[ask] # get_value(readout='pIC50', item= O=C(Cc1ccc(-c2ccc(OCCN3CCOCC3)cc2)cn1)NCc1ccccc1 [KXO1] )
[reply] 4.34

[ask] # get_value(readout='pIC50', item= CN1CCN(CCOc2ccc(-c3ccc(CC(=O)NCc4cccc(F)c4)nc3)c(F)c2)CC1 )
[reply] 5.30

Further cases:
[ask] # get_value(readout='pIC50', item= O=C(Cc1ccc(-c2ccc(OCCN3CCOCC3)cc2)cn1)NCc1ccccc1 [KX2-391] )
[reply] 4.34

###

biological target: isolated FAK (Homo sapiens, UniProt Q05397); assay: titration against isolated FAK; details: titration data
Sequence (Q05397 whole entry): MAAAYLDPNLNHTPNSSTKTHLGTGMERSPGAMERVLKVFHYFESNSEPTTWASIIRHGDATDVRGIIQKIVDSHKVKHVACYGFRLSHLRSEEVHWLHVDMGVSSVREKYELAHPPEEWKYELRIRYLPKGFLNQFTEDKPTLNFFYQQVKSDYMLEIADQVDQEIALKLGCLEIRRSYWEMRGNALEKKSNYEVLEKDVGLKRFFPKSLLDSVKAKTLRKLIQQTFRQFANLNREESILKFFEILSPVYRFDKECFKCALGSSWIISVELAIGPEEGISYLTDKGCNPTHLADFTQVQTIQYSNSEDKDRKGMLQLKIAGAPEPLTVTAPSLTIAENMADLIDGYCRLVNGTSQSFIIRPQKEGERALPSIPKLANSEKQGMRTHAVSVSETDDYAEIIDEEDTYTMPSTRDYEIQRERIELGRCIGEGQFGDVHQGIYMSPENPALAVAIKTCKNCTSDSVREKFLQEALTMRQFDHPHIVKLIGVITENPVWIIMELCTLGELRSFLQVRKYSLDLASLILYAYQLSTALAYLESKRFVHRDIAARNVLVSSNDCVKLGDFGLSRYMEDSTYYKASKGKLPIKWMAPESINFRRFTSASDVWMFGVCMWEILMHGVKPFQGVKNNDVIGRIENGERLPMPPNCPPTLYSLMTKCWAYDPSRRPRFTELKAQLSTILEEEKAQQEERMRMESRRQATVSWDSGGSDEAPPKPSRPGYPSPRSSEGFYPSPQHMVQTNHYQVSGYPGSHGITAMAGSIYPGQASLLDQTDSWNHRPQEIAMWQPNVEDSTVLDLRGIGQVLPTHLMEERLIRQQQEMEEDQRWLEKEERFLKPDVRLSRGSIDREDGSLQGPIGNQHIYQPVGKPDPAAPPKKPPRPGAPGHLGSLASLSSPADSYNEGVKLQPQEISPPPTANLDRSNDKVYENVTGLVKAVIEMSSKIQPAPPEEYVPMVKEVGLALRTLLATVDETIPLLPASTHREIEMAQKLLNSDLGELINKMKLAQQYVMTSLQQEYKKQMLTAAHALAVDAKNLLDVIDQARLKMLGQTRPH
measure: IC50

[ask] # get_value(readout='IC50', item= CN1CCN(CCOc2ccc(-c3ccc(CC(=O)NCc4cccc(F)c4)nc3)c(F)c2)CC1 )
[reply] > 48 µM

Further cases:
[ask] # get_value(readout='IC50', item= O=C(Cc1ccc(-c2ccc(OCCN3CCOCC3)cc2)cn1)NCc1ccccc1 )
[reply] > 48 µM

###

test: brain exposure after oral administration; type: in vivo, male CD-1 mice; settings: male, CD-1, mouse, brain, po, 50 mg/kg, Male CD-1 mice, single PO dose 50 mg/kg (Group 4), 2 hr, Group B; read-out: KX2-391 Brain Concentrations, Group B
measure: concentration at 2 hr (ng/g)
Please reply with the bare figure in ng/g and do not write the unit itself.

[ask] # get_value(readout='concentration at 2 hr', item= O=C(Cc1ccc(-c2ccc(OCCN3CCOCC3)cc2)cn1)NCc1ccccc1 )
[reply] 986

###

# log10(GI50) listing for each entry below
Test system: HT29 cell line
Test: BrdU cell growth inhibition, HT29
Type: cell-based, human
Conditions: Homo sapiens, HT-29, HT29 (Colon) cells; read-out: GI50
Experimental: The GI50s for several of the compounds of the invention were assayed as described herein. The HT29 cell line is a NCI standard human colon carcinoma cell line. In the BrdU Assay for cell growth inhibition, quantitation of cell proliferation was based on the measurement of BrdU incorporation during DNA synthesis. […] Samples were reconstituted in DMSO at 20 mM and intermediate dilutions made using DMEM containing 10% FBS. […] Plates were assayed for BrdU and the data analyzed as above for GI50. […]
Hey, these are logged values: log10 of GI50, nM being the unit before logging.

[ask] # get_value(readout='log10(GI50)', item= O=C(Cc1ccc(-c2ccc(OCCCN3CCOCC3)cc2)cn1)NCc1cccc(F)c1 )
[reply] 2.39

[ask] # get_value(readout='log10(GI50)', item= CCOc1ccc(-c2ccc(CC(=O)NCc3cc(F)cc(OCC4CCN(C)CC4)c3)nc2)cc1 )
[reply] 2.57

[ask] # get_value(readout='log10(GI50)', item= CN1CCN(CCOc2ccc(-c3ccc(CC(=O)NCc4cccc(F)c4)nc3)cc2)CC1 )
[reply] 1.97

[ask] # get_value(readout='log10(GI50)', item= CCOc1ccc(-c2ccc(CC(=O)NCc3cccc(F)c3)nc2)cc1 )
[reply] 1.65

[ask] # get_value(readout='log10(GI50)', item= O=C(Cc1ccc(-c2ccc(N3CCCCC3)cc2)cn1)NCc1cccc(F)c1 )
[reply] 1.83

Further cases:
[ask] # get_value(readout='log10(GI50)', item= O=C(Cc1ccc(-c2ccc(OCCN3CCCCC3)cc2)cn1)NCc1cccc(F)c1 )
[reply] 2.55

[ask] # get_value(readout='log10(GI50)', item= CCOc1ccc(-c2ccc(CC(=O)NCc3cc(F)cc(N4CCN(C)CC4)c3)nc2)cc1 )
[reply] 2.96
